- Tested on: Ipomoea hederacea (IPOHE)
- Test Protocol: Post-emergence herbicidal glasshouse test
- Assay type: in vivo
- Condition Summary: 250 g/ha, evaluated after 13 days, five-point scale
Recorded Metric: percentage damage caused to the plant, IPOHE

Record request: percentage damage caused to the plant, IPOHE value, item FC(F)c1ncc2c(Oc3ncc(Br)cn3)ccc(Cl)c2n1
1 (1=0-20%)

Another: N#Cc1cnc(Oc2cccc3nc(C(F)(F)F)ncc23)nc1
1 (1=0-20%)

Another: FC(F)(F)c1ccc2c(Oc3ncc(Cl)cn3)cccc2n1
4 (4=61-80%)

Another: Fc1cnc(Oc2cccc3nc(C(F)(F)F)ccc23)nc1
4 (4=61-80%)

Another: Cc1ccc(Oc2ncc(Br)cn2)c2cnc(C(F)(F)Cl)nc12
2 (2=21-40%)
